experimental-details: Pharmacokinetics of Compound I in dog after intravenous and oral administration (plasma LC/MS/MS, noncompartmental analysis)
Type: in vivo, male beagle dogs
run-conditions: male, beagle, plasma, iv, 1 mg/kg, intravenous, 1 mg/kg, mean ± SD, read-out: Vz (volume of distribution)
measured-quantity: Vd

* O=C(NCc1cn(-c2ccc(-n3ccccc3=O)cc2)cn1)c1ccc(Cl)s1 | 2.73 L/kg

----------
experimental-details: Pharmacokinetics of Compound I in monkey after intravenous and oral administration (plasma LC/MS/MS, noncompartmental analysis)
Format: in vivo, male rhesus monkeys
run-conditions: male, rhesus, rhesus monkey, plasma, intravenous, 1 mg/kg, mean ± SD, read-out: CL (systemic clearance)
measured-quantity: clearance (mL/min/kg)

• O=C(NCc1cn(-c2ccc(-n3ccccc3=O)cc2)cn1)c1ccc(Cl)s1 = 1.66
